// reported Mean normalized OD for each item listed
target: T1, full-length trimeric SARS-CoV-2 Spike protein (Spike-H6) (SARS-CoV-2, N-glycosylated (22 N-glycosylation sites)); assay: ELISA screen
T1 construct: also called trimeric Spike; full-length Spike-H6
measurement_label: Mean normalized OD

Selp CRD-mouse IgG2a-Fc fusion protein (Fc fusion) WTYNYSTKAYSWNNSRVFCRRHFTDLVAIQNKNEIAHLNDVIPFFNSYYWIGIRKINNKWTWVGTNKTLTEEAENWADNEPNNKKNNQDCVEIYIKSNSAPGKWNDEPCFKRKRALCGGGSGGGSGGGS; 0.014 OD
Mrc2_5 CRD-mouse IgG2a-Fc fusion protein (Fc fusion) FQEAEYKFFEHHSSWAQAQRICTWFQADLTSVHSQAELDFLGQNLQKLSSDQEQHWWIGLHTLESDGRFRWTDGSIINFISWAPGKPRPIGKDKKCVYMTARQEDWGDQRCHTALPYICKGGGSGGGSGGGS; -0.002 OD
Reg3a CRD-mouse IgG2a-Fc fusion protein (Fc fusion) YRSHCYALVMTPKSWFQADLVCQKRPSGHLVSILSGGEASFVSSLVNGRVDNYQDIWIGLHDPTMGQQPNGGGWEWSNSDVLNYLNWDGDPSSTVNRGHCGSLTASSGFLKWGDYYCDGTLPFVCKGGGSGGGSGGGS; 0.006 OD
